System: Wild type
protocol text: S. aureus survival, RN4220 and DeltatarO strains – OD600, teichoic acid synthesis inhibitors, primary screen (AID 463173)
particulars: S. aureus RN4220 wild type/DeltatarO growth, OD600, 18 h, hits give low values, screened at 18.75 µg/mL (by protocol)
Hit rate of the full screen: of about 52,000 compounds, about 1,700 (3.3%) were called active. What follows is part of a selection rich in actives, with near analogues and random picks from the rest.
Here, each record is paired with measured survival data.

{"columns": ["compound", "tested target", "survival / %"],
 "data": [
  ["COc1ccccc1OC(C)C(=O)N1CCN(CCc2ccccn2)CC1 (centres undefined)", "Wild type", 82],
  ["COC(=O)c1c(NC(=O)c2cc3nc(-c4ccc(OC)cc4)cc(C(F)(F)F)n3n2)sc2c1CCCC2", "Wild type", 73],
  ["Cn1c(=O)oc2cc(S(=O)(=O)CCC(=O)NCc3ccc(Cl)cc3)ccc21", "Wild type", 74],
  ["Cc1cccc(-c2nnc(SCC(=O)N3CCCc4ccccc43)o2)c1", "Wild type", 5],
  ["CCN1C(=O)c2ccccc2S(=O)c2ccc(C(=O)N3CCN(c4ccccc4)CC3)cc21 (centres undefined)", "Wild type", 83],
  ["COc1ccc(C2C=C(c3ccc(Cl)c(Cl)c3)Nc3ncnn32)cc1 (centres undefined)", "Wild type", 26],
  ["O=C(CSc1nnc(-c2ccccc2Cl)o1)N1CCCc2ccccc21", "Wild type", 35],
  ["CCCn1c(=O)c2sccc2n2c(CCCC(=O)N3CCN(c4ccc(OC)cc4)CC3)nnc12", "Wild type", 99],
  ["CCCOc1ccc(NC(=O)CC2C(=O)N(c3ccc(F)cc3)C(=O)N2CC(C)C)cc1 (centres undefined)", "Wild type", 75],
  ["Cc1ccc(CNC(=O)CCCCCn2c(=O)[nH]c3ccccc3c2=O)cc1", "Wild type", 146],
  ["Cc1ccc(-n2ncc3c(Nc4ccc(Oc5ccccc5)cc4)ncnc32)cc1", "Wild type", 74],
  ["CCCN1C(=O)C(NC(=O)c2ccccc2OC)(C(F)(F)F)C(C(=O)OC)=C1C (centres undefined)", "Wild type", 78],
  ["Cc1ccc(N(C)S(=O)(=O)c2c(-c3ccccc3)csc2C(=O)O)cc1", "Wild type", 61],
  ["CS(=O)(=O)c1ccccc1-c1nnc(NC(=O)c2ccc3c(c2)OCCO3)o1", "Wild type", -6],
  ["CCC(CO)Nc1ncnc2c1cnn2-c1ccc(C)cc1 (centres undefined)", "Wild type", -6],
  ["CSc1ccccc1-c1nnc(NC(=O)c2ccc3c(c2)OCCO3)o1", "Wild type", 123],
  ["CCOC(=O)c1cc(-c2ccccc2)n(CC(=O)Nc2cc(Cl)c(OC)cc2OC)c1C", "Wild type", 128],
  ["CS(=O)(=O)c1ccc(-c2nnc(NC(=O)c3ccc4c(c3)OCCO4)o2)cc1", "Wild type", 75],
  ["CC(C)Oc1ccc(CNC(=O)c2ccccc2NC(=O)c2nsc3ccccc23)cc1", "Wild type", 124],
  ["CCCOc1ccc(OC(=O)c2sc3ncn(Cc4cccc(F)c4)c(=O)c3c2C)cc1", "Wild type", 56],
  ["CCOc1ccc(-c2nnc(SCC(=O)NCCc3ccccc3)nc2-c2ccc(OCC)cc2)cc1", "Wild type", 73],
  ["CCCCOc1ccc(CNC(=O)c2cnc3sc(N4CCCCCC4)nn3c2=O)cc1", "Wild type", 91],
  ["CCCCC(=O)Nc1ccc(OCc2cc(=O)n3c(C)csc3n2)cc1", "Wild type", 87],
  ["O=C(CSc1nnc(-c2cccc(F)c2)o1)N1c2ccccc2Sc2ccccc21", "Wild type", 103]
]}
